Target: Human FXIa (Homo sapiens)
Construct: Human FXIa (Enzyme Research Laboratories) was incubated; purchased Enzyme Research Laboratories
Experiment: FXIa inhibitory activity in vitro (fluorogenic substrate Z-Gly-Pro-Arg-AFC), selectivity
Assay type: biochemical
Conditions: category scale, 25° C.
endpointLabel: IC50

Worked examples, 3 compounds total:
compound	IC50
Nc1nccc2cc(CNC(=O)C3(NC(=O)[C@H](N)CCc4ccccc4)CCOCC3)ccc12	> 40 µM
CC(C)N[C@H](CCc1ccccc1)C(=O)N[C@@H](C)C(=O)NCc1cnc2[nH]cc(Cl)c2c1	> 40 µM
C[C@H](NC(=O)[C@H](N)CCCc1ccccc1)C(=O)NCc1ccc2c(N)nccc2c1	3 to 10 µM

Return reported IC50; argument: Nc1nccc2cc(CNC(=O)C3(NC(=O)[C@H](N)CCc4ccccc4)CC3)ccc12
> 40 µM

====

IC50 for assorted compounds
Target: Human Factor XIIa (Homo sapiens, UniProt P00748)
Construct: purchased Enzyme Research Laboratories
Sequence (P00748 373-615 limits assumed): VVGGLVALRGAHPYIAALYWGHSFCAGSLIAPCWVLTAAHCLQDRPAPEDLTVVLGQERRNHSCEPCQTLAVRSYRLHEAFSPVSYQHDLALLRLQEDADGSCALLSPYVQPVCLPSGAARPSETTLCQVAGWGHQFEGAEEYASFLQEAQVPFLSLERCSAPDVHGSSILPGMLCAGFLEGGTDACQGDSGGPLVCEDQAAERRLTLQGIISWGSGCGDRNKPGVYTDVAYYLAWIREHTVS
Test: Factor XIIa inhibitory activity in vitro (fluorogenic substrate H-DPro-Phe-Arg-AFC)
Assay type: biochemical
Details: 25° C., class symbols, read-out: Human FXIIa IC50

compound	IC50
C[C@@H]1CCC[C@H](C)N1CC(=O)N[C@@H](Cc1ccc(F)c(F)c1)C(=O)NCc1ccc2c(N)n[nH]c2c1 [Example 3.104]	10 to 40 µM
CC(=O)N1C[C@H](c2ccccc2)C[C@H]1C(=O)NCc1ccc2c(N)nccc2c1 [Example 43.01]	3 to 10 µM
CC(C)N1CCC[C@@H]1C(=O)N[C@@H](Cc1ccc(F)c(F)c1)C(=O)NCc1cnc2[nH]ccc2c1 [Example 44.04]	10 to 40 µM

Now let's try a different one.
Return reported IC50; argument: Nc1nccc2cc(CNC(=O)[C@H](Cc3ccc(F)c(F)c3)NC(=O)c3c[nH]nc3C3CC3)ccc12 [Example 0.61]
10 to 40 µM

====

Biological target: Human Factor XIIa (Homo sapiens)
Construct: purchased Enzyme Research Laboratories
Assay: Factor XIIa inhibitory activity in vitro (fluorogenic substrate H-DPro-Phe-Arg-AFC)
Format: biochemical
Settings: 25° C., class symbols, read-out: Human FXIIa IC50
IC50 for assorted molecules

Return reported IC50; argument: CC[C@H](NC(=O)[C@H](N)CCc1ccccc1)C(=O)NCc1ccc2c(N)nccc2c1
1 to 3 µM

====

pIC50 for assorted compounds
Biological target: Human FXIa (Homo sapiens, UniProt P03951)
Construct: Human FXIa (Enzyme Research Laboratories) was incubated; purchased Enzyme Research Laboratories
Sequence (P03951 388-625 limits assumed): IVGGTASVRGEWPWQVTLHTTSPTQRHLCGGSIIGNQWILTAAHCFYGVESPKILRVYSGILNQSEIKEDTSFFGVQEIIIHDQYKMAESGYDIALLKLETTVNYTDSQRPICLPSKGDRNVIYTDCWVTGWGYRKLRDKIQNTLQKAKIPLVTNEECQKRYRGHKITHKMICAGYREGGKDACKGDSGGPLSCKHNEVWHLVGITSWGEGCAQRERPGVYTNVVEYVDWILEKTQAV
Sequence (P03951 19-387 partner limits assumed): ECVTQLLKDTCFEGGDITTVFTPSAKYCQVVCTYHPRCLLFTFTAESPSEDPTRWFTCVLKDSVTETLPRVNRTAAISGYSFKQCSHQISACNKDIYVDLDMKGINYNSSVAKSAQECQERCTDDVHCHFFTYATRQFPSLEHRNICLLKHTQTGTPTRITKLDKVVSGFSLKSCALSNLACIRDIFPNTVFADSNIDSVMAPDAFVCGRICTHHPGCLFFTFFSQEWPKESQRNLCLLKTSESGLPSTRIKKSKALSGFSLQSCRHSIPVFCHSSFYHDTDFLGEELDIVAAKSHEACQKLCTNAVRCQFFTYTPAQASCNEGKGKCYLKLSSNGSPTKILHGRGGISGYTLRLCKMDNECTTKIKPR
Test: FXIa inhibitory activity in vitro (fluorogenic substrate Z-Gly-Pro-Arg-AFC), selectivity
Type: biochemical
Conditions: numeric bound printed instead of category, 25° C.
pIC50: −log10 of the molar value.

Return reported pIC50; argument: N=C(N)c1ccc(CNC(=O)[C@H](Cc2cccc3ccccc23)NC(=O)[C@H]2CCCN2)cc1 [Example 71.01]
< 5.00

Return reported pIC50; argument: N=C(N)c1ccc(CNC(=O)[C@H](Cc2cccc3ccccc23)NC(=O)c2ccccn2)cc1 [Example 71.02]
< 5.00

====

Biological target: Human Factor XIIa (Homo sapiens)
Construct: purchased Enzyme Research Laboratories
Assay: Factor XIIa inhibitory activity in vitro (fluorogenic substrate H-DPro-Phe-Arg-AFC)
Type: biochemical
Conditions: 25° C., class symbols, read-out: Human FXIIa IC50
pIC50: −log10 of the molar value.
endpointLabel: pIC50

Worked examples, 4 molecules total:
molecule	pIC50
Nc1nccc2cc(CNC(=O)[C@H](Cc3ccc(F)c(F)c3)NC(=O)c3cccnc3)ccc12 [Example 0.23]	4.40 to 5.00
CC(NC(=O)[C@@H](CCc1ccccc1)NC1CCOCC1)C(=O)NCc1cnc2[nH]cc(Cl)c2c1 (stereo partly shown) [Example 9.22]	4.40 to 5.00
CC(C(=O)N[C@@H](Cc1ccc(F)c(F)c1)C(=O)NCc1ccc2c(N)nccc2c1)N1CCCC1 (stereo partly shown) [Example 5.103]	5.52 to 6.00
C[C@H](NC(=O)[C@H]1C[C@H](c2ccccc2)CN1)C(=O)NCc1ccc2c(N)nccc2c1 [Example 45.03]	5.52 to 6.00

Return reported pIC50; argument: Nc1nccc2cc(CNC(=O)[C@H](Cc3ccc(F)c(F)c3)NC(=O)c3ccc4cnccc4c3)ccc12 [Example 0.28]
4.40 to 5.00

Return reported pIC50; argument: Nc1nccc2cc(CNC(=O)[C@H](Cc3ccc(F)c(F)c3)NC(=O)CN3CCOCC3)ccc12 [Example 3.07]
4.40 to 5.00

Return reported pIC50; argument: C[C@@H]1CCC[C@H](C)N1CC(=O)NC1(C(=O)NCc2ccc3c(N)nccc3c2)CCOCC1 [Example 39.11]
4.40 to 5.00

====

Biological target: Human FXIa (Homo sapiens, UniProt P03951)
Construct: Human FXIa (Enzyme Research Laboratories) was incubated; purchased Enzyme Research Laboratories
Assay: FXIa inhibitory activity in vitro (fluorogenic substrate Z-Gly-Pro-Arg-AFC), selectivity
Type: biochemical
Conditions: category scale, 25° C.
pIC50: −log10 of the molar value.
endpointLabel: pIC50

compound	systemUnderTest	assayValue
CC1CCCC(C)N1CC(=O)N[C@@H](Cc1ccc(F)c(F)c1)C(=O)NCc1ccc2c(N)nccc2c1 (stereo partly shown)	Human FXIa (Homo sapiens, UniProt P03951)	< 4.40
C[C@@H]1CCC[C@H](C)N1CC(=O)N[C@@H](Cc1ccc(F)c(F)c1)C(=O)NCc1ccc2c(N)nccc2c1	Human FXIa (Homo sapiens, UniProt P03951)	< 4.40
O=C(NCc1ccc2[nH]cc(Cl)c2c1)[C@@H]1CCN1C(=O)CCCCCN1CCCCC1	Human FXIa (Homo sapiens, UniProt P03951)	< 4.40
C[C@H](NC(=O)[C@H](N)CCc1ccccc1)C(=O)NCc1cc2c(N)nccc2s1	Human FXIa (Homo sapiens, UniProt P03951)	< 4.40
CC(C)N[C@H](CCCCN1CCCCC1)C(=O)N1CCC[C@H]1C(=O)NCc1cnc2[nH]cc(Cl)c2c1	Human FXIa (Homo sapiens, UniProt P03951)	5.00 to 5.52
C[C@H](NC(=O)[C@H](N)CCc1ccccc1)C(=O)NCc1ccc2[nH]cc(Cl)c2c1	Human FXIa (Homo sapiens, UniProt P03951)	< 4.40

Now let's try a different one.
Return reported pIC50; argument: N=C(N)c1ccc(CNC(=O)[C@H](Cc2ccccc2)NC(=O)[C@@H](CC2CCCCC2)NCC(=O)O)cc1
6.00 to 6.52

====

pIC50 for assorted compounds
Molecular target: Human Factor XIIa (Homo sapiens, UniProt P00748)
Construct: purchased Enzyme Research Laboratories
Test: Factor XIIa inhibitory activity in vitro (fluorogenic substrate H-DPro-Phe-Arg-AFC)
Format: biochemical
Conditions: 25° C., class symbols, read-out: Human FXIIa IC50
Description: Determination of the % Inhibition for FXIIa Human Factor XIIa (Enzyme Research Laboratories) was incubated at 25° C. with the fluorogenic substrate H-DPro-Phe-Arg-AFC and various concentrations of the test compound. Residual enzyme activity (initial rate of reaction) was determined by measuring the change in […] at 410 nm and the IC50 value for the test compound was determined.
pIC50: −log10 of the molar value.

Worked examples, 3 compounds total:
compound	pIC50
C[C@@H]1CCC[C@H](C)N1CC(=O)N[C@@H](Cc1c[nH]c2ccccc12)C(=O)NCc1ccc2c(N)nccc2c1	6.55 to 7.00
Nc1nccc2cc(CNC(=O)[C@H](Cc3ccc(F)c(F)c3)NC(=O)c3ccc4ncsc4c3)ccc12	4.40 to 5.00
C[C@H](NC(=O)[C@H](N)CCCc1ccccc1)C(=O)NCc1ccc2c(N)nccc2c1	5.00 to 5.52

Value wanted: pIC50 (Human Factor XIIa (Homo sapiens, UniProt P00748)) of entry C[C@@H]1CCC[C@H](C)N1CC(=O)N1CC[C@@H](C(=O)NCc2ccc3c(N)nccc3c2)C1
4.40 to 5.00

Value wanted: pIC50 (Human Factor XIIa (Homo sapiens, UniProt P00748)) of entry Nc1nccc2cc(CNC(=O)[C@@H]3C[C@@H](c4ccccc4)CN3CC3CCNCC3)ccc12
4.40 to 5.00

Value wanted: pIC50 (Human Factor XIIa (Homo sapiens, UniProt P00748)) of entry C[C@@H]1CCC[C@H](C)N1CC(=O)N1CCC(C(=O)NCc2ccc3c(N)nccc3c2)C1 (some centres unmarked)
4.40 to 5.00

Value wanted: pIC50 (Human Factor XIIa (Homo sapiens, UniProt P00748)) of entry Nc1nccc2cc(CNC(=O)[C@H](Cc3ccc(F)c(F)c3)NC(=O)CCn3cc(C(F)(F)F)ccc3=O)ccc12
4.40 to 5.00

Value wanted: pIC50 (Human Factor XIIa (Homo sapiens, UniProt P00748)) of entry Cc1nc(C(=O)N[C@@H](Cc2ccc(F)c(F)c2)C(=O)NCc2ccc3c(N)nccc3c2)c(C)o1
4.40 to 5.00

Value wanted: pIC50 (Human Factor XIIa (Homo sapiens, UniProt P00748)) of entry N#Cc1ccc(CS(=O)(=O)N[C@@H](Cc2ccc(F)c(F)c2)C(=O)NCc2ccc3c(N)nccc3c2)cc1
4.40 to 5.00

Value wanted: pIC50 (Human Factor XIIa (Homo sapiens, UniProt P00748)) of entry Nc1nccc2cc(CNC(=O)[C@H](Cc3ccc(F)c(F)c3)NC(=O)c3ccc(-c4cncnc4)cc3)ccc12
4.40 to 5.00

Value wanted: pIC50 (Human Factor XIIa (Homo sapiens, UniProt P00748)) of entry CC(C)c1cc(C(=O)N[C@@H](Cc2ccc(F)c(F)c2)C(=O)NCc2ccc3c(N)nccc3c2)n(C)n1
4.40 to 5.00
